Origin of values: patent US20200216536A1

- system: T1, canine FcRn (UniProtKB-E2ROL6 [FcRn] and UniProtKB-E2RN10 [canine beta-2-microglobulin]) (canine)
- T1 construct: Soluble analyte injected in SPR
- methodDescription: SPR Biacore 8K, pH 5.5, Fc captured on BSA via SASA tag, FcRn 100-800 nM
pKd: −log10 of the molar value.
Listing of entries alongside the reported pKd.
measuredParameter: pKd

[
  {
    "binder": "canine IgG.B Fc (CH2-CH3) variant N434R (Fc fusion) APEMLGGPSVFIFPPKPKDTLLIARTPEVTCVVVDLDPEDPEVQISWFVDGKQMQTAKTQPREEQFNGTYRVVSVLPIGHQDWLKGKQFTCKVNNKALPSPIERTISKARGQAHQPSVYVLPPSREELSKNTVSLTCLIKDFFPPDIDVEWQSNGQQEPESKYRTTPPQLDEDGSYFLYSKLSVDKSRWQRGDTFICAVMHEALHRHYTQESLSHSPGK",
    "valueMeasured": 6.74
  },
  {
    "binder": "canine IgG.B Fc (CH2-CH3) YTE variant (L252Y/A254T/T256E) (Fc fusion) APEMLGGPSVFIFPPKPKDTLYITREPEVTCVVVDLDPEDPEVQISWFVDGKQMQTAKTQPREEQFNGTYRVVSVLPIGHQDWLKGKQFTCKVNNKALPSPIERTISKARGQAHQPSVYVLPPSREELSKNTVSLTCLIKDFFPPDIDVEWQSNGQQEPESKYRTTPPQLDEDGSYFLYSKLSVDKSRWQRGDTFICAVMHEALHNHYTQESLSHSPGK",
    "valueMeasured": 6.74
  },
  {
    "binder": "canine IgG.B Fc (CH2-CH3) variant N434Y (Fc fusion) APEMLGGPSVFIFPPKPKDTLLIARTPEVTCVVVDLDPEDPEVQISWFVDGKQMQTAKTQPREEQFNGTYRVVSVLPIGHQDWLKGKQFTCKVNNKALPSPIERTISKARGQAHQPSVYVLPPSREELSKNTVSLTCLIKDFFPPDIDVEWQSNGQQEPESKYRTTPPQLDEDGSYFLYSKLSVDKSRWQRGDTFICAVMHEALHYHYTQESLSHSPGK",
    "valueMeasured": 7.54
  }
]
